TARGET_ENTITY: T1, recombinant human activated Factor VII (FVIIa) (human, UniProt P08709 61-212; P08709 213-466, ten glutamate residues of the Gla domain may be gamma-carboxylated)
T1 construct: chains tethered by a disulfide bond; also called Factor VIIa; rFVIIa
T1 sequence 1: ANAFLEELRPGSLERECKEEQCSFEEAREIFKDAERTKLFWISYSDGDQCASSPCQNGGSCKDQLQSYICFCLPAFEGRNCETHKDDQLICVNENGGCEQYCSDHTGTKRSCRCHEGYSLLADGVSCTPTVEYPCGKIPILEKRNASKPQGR
T1 sequence 2: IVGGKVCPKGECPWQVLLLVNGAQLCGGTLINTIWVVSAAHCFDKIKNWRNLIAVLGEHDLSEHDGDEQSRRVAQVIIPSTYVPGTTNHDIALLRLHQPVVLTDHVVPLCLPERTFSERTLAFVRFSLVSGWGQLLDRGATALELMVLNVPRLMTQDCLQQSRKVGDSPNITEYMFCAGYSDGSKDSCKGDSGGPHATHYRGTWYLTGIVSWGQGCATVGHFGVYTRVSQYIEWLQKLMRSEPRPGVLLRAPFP
ASSAY_OVERVIEW: BLI (Fortebio)
ASSAY_READOUT: pKd
Remember, pKd is on a log scale: it is -log10 of the molar concentration.

| BINDER | pKd |
| --- | --- |
| VH SEQ ID NO 578 / VL SEQ ID NO 358 (antibody, IgG4, V domains shown, humanized 11F2; IgG4 S228P/kappa) VH: QVQLQESGPGLVKPSDTLSLTCAVSGYSISSDSAWSWIRQPPGKGLEWIGYIQYSGSTNYNPSLKSRVTMSVDTSKNQFSLKLSSVTALDTAVYYCARSVNYYGNSFAVGPWGQGTLVTVSS VL: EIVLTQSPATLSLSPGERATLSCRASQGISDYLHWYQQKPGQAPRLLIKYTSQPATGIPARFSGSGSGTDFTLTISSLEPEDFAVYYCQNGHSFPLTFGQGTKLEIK | 7.72 |
| VH SEQ ID NO 626 / VL SEQ ID NO 334 (antibody, IgG4, V domains shown, humanized 11F2; IgG4 S228P/kappa) VH: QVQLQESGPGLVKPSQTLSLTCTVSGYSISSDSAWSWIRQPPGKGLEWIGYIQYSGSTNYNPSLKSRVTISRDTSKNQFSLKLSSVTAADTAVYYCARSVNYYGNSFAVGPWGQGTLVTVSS VL: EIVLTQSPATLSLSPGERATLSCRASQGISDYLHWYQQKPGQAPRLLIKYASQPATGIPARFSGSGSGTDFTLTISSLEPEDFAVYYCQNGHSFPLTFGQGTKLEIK | 9.02 |
| VH SEQ ID NO 514 / VL SEQ ID NO 390 (antibody, IgG4, V domains shown, humanized 11F2; IgG4 S228P/kappa) VH: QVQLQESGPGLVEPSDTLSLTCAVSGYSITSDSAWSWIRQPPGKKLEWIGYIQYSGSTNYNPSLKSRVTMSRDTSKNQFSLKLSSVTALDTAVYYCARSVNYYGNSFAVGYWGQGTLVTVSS VL: EIVLTQSPATLSLSPGERATLSCRASQGVSDYLAWYQQKPGEAPRLLIKYASQPATGIPARFSGSGSGTDFTLTISSLEPEDFAVYYCQNGHSFPLTFGQGTKLEIK | 8.33 |
| VH SEQ ID NO 650 / VL SEQ ID NO 438 (antibody, IgG4, V domains shown, humanized 11F2; IgG4 S228P/kappa) VH: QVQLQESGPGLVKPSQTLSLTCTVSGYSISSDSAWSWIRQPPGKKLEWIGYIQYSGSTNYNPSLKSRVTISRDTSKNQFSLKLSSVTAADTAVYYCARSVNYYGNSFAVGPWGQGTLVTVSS VL: EIVLTQSPATLSLSPGERATLSCRASQGVSDYLAWYQQKPGQAPRLLIKYASQPATGIPARFSGSGSGTDFTLTISSLEPEDVAVYYCQNGHSFPLTFGQGTKLEIK | 7.55 |

Query string: What value of measured pKd is listed for VH SEQ ID NO 570 / VL SEQ ID NO 414 (antibody, IgG4, V domains shown, humanized 11F2; IgG4 S228P/kappa) VH: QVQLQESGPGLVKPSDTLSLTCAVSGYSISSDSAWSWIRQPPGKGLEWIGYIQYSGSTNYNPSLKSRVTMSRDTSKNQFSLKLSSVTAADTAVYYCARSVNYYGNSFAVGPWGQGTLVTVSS VL: EIVLTQSPATLSLSPGERATLSCRASQGVSDYLAWYQQKPGQAPRLLIKYASQPATGIPARFSGSGSGTDFTLTISSLEPEDFAVYYCQNGHSFPLTFGQGTKLEIK ?
Result string: 7.68
